All figures here come from patent US12145939B2.

Assayed system: human NaV1.6 (hNaV1.6) (Homo sapiens, UniProt Q9UQD0)
Construct: expressed in transfected cells; host or cells: HEK-293
Sequence (Q9UQD0 whole entry): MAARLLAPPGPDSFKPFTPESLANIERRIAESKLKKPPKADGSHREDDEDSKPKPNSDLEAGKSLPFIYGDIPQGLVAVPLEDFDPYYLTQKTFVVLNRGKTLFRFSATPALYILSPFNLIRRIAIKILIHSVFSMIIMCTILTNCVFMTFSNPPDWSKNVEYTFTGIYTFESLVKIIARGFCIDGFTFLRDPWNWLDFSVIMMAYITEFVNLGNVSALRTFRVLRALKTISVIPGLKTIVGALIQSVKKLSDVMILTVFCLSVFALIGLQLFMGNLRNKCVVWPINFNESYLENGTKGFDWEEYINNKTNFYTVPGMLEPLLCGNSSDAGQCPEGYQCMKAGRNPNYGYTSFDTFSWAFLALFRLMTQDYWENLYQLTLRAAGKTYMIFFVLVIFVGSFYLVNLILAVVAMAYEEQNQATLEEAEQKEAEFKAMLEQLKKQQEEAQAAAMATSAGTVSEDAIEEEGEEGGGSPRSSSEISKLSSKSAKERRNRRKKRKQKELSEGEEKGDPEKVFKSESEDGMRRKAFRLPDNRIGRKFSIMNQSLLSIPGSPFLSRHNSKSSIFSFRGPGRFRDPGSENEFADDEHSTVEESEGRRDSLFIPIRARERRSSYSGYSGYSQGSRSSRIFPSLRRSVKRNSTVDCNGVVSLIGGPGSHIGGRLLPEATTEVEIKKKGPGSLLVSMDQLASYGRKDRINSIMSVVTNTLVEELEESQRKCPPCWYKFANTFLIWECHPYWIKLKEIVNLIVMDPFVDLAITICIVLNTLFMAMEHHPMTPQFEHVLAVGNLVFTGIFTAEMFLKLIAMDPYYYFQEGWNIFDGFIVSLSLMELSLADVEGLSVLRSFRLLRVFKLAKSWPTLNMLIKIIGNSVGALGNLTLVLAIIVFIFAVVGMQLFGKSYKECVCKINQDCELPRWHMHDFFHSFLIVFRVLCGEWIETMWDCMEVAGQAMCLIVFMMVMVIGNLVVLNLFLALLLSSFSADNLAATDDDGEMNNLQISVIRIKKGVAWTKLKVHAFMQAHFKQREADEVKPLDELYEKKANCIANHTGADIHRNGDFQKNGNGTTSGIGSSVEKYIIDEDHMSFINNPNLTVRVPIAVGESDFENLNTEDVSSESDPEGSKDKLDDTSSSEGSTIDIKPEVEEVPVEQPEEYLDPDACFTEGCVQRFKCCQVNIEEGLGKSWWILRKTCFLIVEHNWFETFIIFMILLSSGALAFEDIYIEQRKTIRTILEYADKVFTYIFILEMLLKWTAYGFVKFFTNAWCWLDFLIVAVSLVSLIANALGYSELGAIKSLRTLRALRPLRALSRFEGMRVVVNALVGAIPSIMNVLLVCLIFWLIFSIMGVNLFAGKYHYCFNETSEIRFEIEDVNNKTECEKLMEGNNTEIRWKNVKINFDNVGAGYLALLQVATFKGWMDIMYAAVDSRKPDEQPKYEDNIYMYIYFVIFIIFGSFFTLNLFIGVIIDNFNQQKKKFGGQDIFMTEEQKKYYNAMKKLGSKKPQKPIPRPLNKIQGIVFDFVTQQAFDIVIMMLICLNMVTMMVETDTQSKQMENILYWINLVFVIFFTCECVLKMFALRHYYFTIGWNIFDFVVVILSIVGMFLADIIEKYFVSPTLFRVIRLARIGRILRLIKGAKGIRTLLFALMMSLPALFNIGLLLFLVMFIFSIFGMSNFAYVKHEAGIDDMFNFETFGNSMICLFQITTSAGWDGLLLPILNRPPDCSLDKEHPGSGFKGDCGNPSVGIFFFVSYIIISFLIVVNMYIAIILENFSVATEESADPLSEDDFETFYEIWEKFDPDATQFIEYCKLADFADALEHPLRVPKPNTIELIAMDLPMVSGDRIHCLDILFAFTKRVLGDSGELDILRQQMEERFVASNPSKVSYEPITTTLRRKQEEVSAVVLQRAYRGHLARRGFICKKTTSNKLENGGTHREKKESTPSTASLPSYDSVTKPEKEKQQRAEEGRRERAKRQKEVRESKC
Measurement notes: Modulation of late sodium current (INaL) at hNaV1.6, PatchXpress electrophysiology
Format: cell-based
Conditions used: HEK293, HEK-293 cells expressing recombinant human NaV 1.6, late current evoked by 300 nM ATX-II, read-out: NaV 1.6 Assay Data (percent inhibition of INaL at hNaV1.6)
Here, each record is paired with measured inhibition at 1 µM data.

Here's what some known entries look like.
Given COC1(c2nnc3cnc(-c4cnc(O[C@H](C)C(F)(F)F)c(F)c4)cn23)CC1 , state its recorded inhibition at 1 µM. < 30%

Given COC(F)(F)c1nnc2cnc(-c3ccc([C@H](C)OCC(F)(F)F)cc3)cn12 (single isomer, unassigned) , state its recorded inhibition at 1 µM. < 30%

Given COC(C)(C)c1nnc2cnc(-c3cnc(OC(C)(C)C(F)(F)F)c(F)c3)cn12 , state its recorded inhibition at 1 µM. > 70%

Given COC(C)(C)c1nnc2cnc(-c3cnc(O[C@H](C)C(F)(F)F)c(F)c3)cn12 , state its recorded inhibition at 1 µM. 30 to 70%

Given CCO[C@@H](C)c1nnc2cnc(-c3cnc(OC(C)(C)C(F)(F)F)c(F)c3)cn12 , state its recorded inhibition at 1 µM. 30 to 70%

Given CCOC(F)(F)c1nnc2cnc(-c3ccc([C@H](C)OCC(F)(F)F)cc3C)cn12 (single isomer, unassigned) , state its recorded inhibition at 1 µM. < 30%

Given COC(C)(C)c1nnc2cnc(-c3ccc(OC4(C(F)(F)F)CCC4)nc3)cn12 , state its recorded inhibition at 1 µM. 30 to 70%

Given COCC(F)(F)Oc1ccc(-c2cn3c(C(F)(F)F)nnc3cn2)cc1 , state its recorded inhibition at 1 µM. 30 to 70%

Given CCOC(F)(F)c1nnc2cnc(-c3ccc([C@H](C)OCC(F)(F)F)cc3)cn12 (single isomer, unassigned) , state its recorded inhibition at 1 µM. 30 to 70%

Given COC(F)(F)c1nnc2cnc(-c3ccc([C@@H]4CC4(F)F)cc3)cn12 (single isomer, unassigned) , state its recorded inhibition at 1 µM. > 70%

Next:
Given FC(F)(F)c1nnc2cnc(-c3ccc(O[C@H](C4CC4)C(F)(F)F)nc3)cn12 (single isomer, unassigned) , state its recorded inhibition at 1 µM. 30 to 70%

Given CO[C@H](C)c1nnc2cnc(-c3ccc(OC(C)(C)C(F)(F)F)nc3)cn12 (single isomer, unassigned) , state its recorded inhibition at 1 µM. 30 to 70%

Given COC(C)(C)c1nnc2cnc(-c3ccc(OC(C)C(F)(F)F)nc3)cn12 (racemic) , state its recorded inhibition at 1 µM. < 30%

Given COC(C)(C)c1nnc2cnc(-c3cnc(O[C@@H](C)C(F)(F)F)c(F)c3)cn12 , state its recorded inhibition at 1 µM. 30 to 70%
